Assay Explanation: yeast display, Sf9 membrane polyspecificity reagent, FACS + sequencing; frameworks hold sequencing errors
Readout Name: polyreactivity (PSR sort gate)

1) QVQLVESGGGLVQAGGSLRLSCAASGFTFRGYAMGWYRQAPGKERELVAAISNGGGTNYADSVKGRFTISRDNAKNTVYLQMNSLKPEDTAVYYCNAPGYRAENPGFDYWGQGTQVTVSS ... high polyreactivity
2) QVQLVESGGGLVQAGGSLRLRCAASGSTFDSYAMGWYRQAPGKERELVAAITTTGGSTFYADSVKGRFTISRDYAKNTVYLQMNSLKPEDTAVYYCAADDGWQEFEYWGQGTQVTVSS ... low polyreactivity
3) QVQLVESGGGLVQAGGSLRLSCAASGSIFDYYAMGWYRQAPGKERELVAAIDSGDITYYADSVKGRFTISRDNAKNTFYLQMNRLKPEDTAVYYCAAEGTGYSVGWQYGYWGQGTQVSVSS ... low polyreactivity
4) QVQLVESGGGLVQAGGSLRLSCAASGGTFVPNAMGWYRQAPGKERELVAAITWSGARTYYADSVKGRFTISRDNAKNTVYLQMNSLKPEDTAVYYCAAVYNYYIVYEYYYWGQGTQVTVSS ... high polyreactivity
5) QVQLVESGGGLVQAGGSLRLSCAASGTFAGNAMGWYRQAPGKERELVAAITTGGRTYYADSVKRRFTISRDNAKNTLYIQMNSLKPEDTAVYYCAADRIRDLEFDYWGQGTQVTVSS ... low polyreactivity

* * *

Assay Explanation: yeast display, Sf9 membrane polyspecificity reagent, FACS + sequencing; frameworks hold sequencing errors
Readout Name: polyreactivity (PSR sort gate)

1) QVQLVESGGGLVQAGGSLRLSCAASGSSFHTYAMGWYRQAPGKERELVAAINRRTGGTYYADSVKGRFTISRDNAKTTVYLQMNSLKPEDTAVYYCATDWFSYRGGIFDSWGQGTQVTVSS ... low polyreactivity
2) QVQLQESGGGLVQAGGSLRLTCAASGYISYLQSMGLYRQAPVKERELVAGITLGTTTYNADSVKGRFTISPDNVQNTVYLQMNSLKPEYTAVYYCAVAVGHYPEFWYWGQGTQVTMSS ... high polyreactivity
3) QVQLVESGGGLVQAGGSLRLSCAASGFTFQYYAMGWYRQAPGKERELVAAISWSGGRTYYADSVKGRFTISRDNAKNSVYLQMNSLKPVDTAVYYCAAQWYKWAYNNTLLRYYYWGQGTQVTVSS ... high polyreactivity
4) QVQLVESGGGLVQAGGSLRLSCAASGRIFYTYAMGWYRQAPGKERELVAAINYSSASTYYADSVKGRFTISRDNAKNTVYLQMNSLKPEDTAVYYCNVAYVYGSFRRRPMGYWGQGTQVTVSS ... high polyreactivity
5) QVQLVESGGGLVQAGGSLRLSCAASGFTFVNNAMGWYRQAPGKERELVAAISGGGTTNYADSVKGRFTISRDNAKNTVYLQMNSLKPEDTAVYYCAARRYFGLWYFWYDYWGQGTQVTVSS ... high polyreactivity
6) QVQLVESGGGLVQAGGSLRLSCAASGFTFYYYTMGWYIKAPGKERELVAAITRSGGRTYYADSVKGRFTISRDNAKNTVYLQMNSLKPEDTAVYYCAARTPFYNSYRRDYWGQGTQVTVSS ... high polyreactivity
7) QVQLVESGGGLVQAGGSRRLSWAASGSTFPRNAMGWYRQAPGKERELVAAISSGGSTYYADSVKWRFTISRDNAKNTVYLQMNSLKPEDTAVYYCAARLYWPIIVVDLYGYDYWGEGTQVTVSS ... low polyreactivity
8) QVQLVESGGGLVQAGGSLRLSCAASGSIFQPYAMGWYRQAPGKERELVAAISIGDSTNYADSVKGRFTISRDNAKNTVYLQMNSLKPADTAVYYCNTTGEYYDYWGQATQVTVSS ... low polyreactivity
9) QVQLVESGAGLVQAGGSLRLSCAASGYTFSKNTMGWYRQAPGKERELVAAISRSGGSTYYADSVKGRFTISRDNAKNTFYLQMNSLKPEDTAVYYSAKRVSTYGFSGYDYWGQGTQVTVSS ... high polyreactivity
10) QVQLVESGGGLVQAGGSLRLSCAASGRIFYYYAMGWYRQAPGKEREFVADISARGGSTYYADSVKGRFTISRDNAKKTVYLEMNSLKPEDTAVYYCAATTGLYTRYGYWGQGTQVTVSS ... high polyreactivity
11) QVQLVESGGGLVQAGGSLRLSCAASGSIFDYNVMGWSRQAPGKERELVAAITYNDGSTYYGDSVKGRFTISRDYAKNTVYLQMNSLKPEDTAVYYCNAEQTPSGLYDYRGVEGEMGYWGQGTQVTVSS ... low polyreactivity

* * *

Assay Explanation: yeast display, Sf9 membrane polyspecificity reagent, FACS + sequencing; frameworks hold sequencing errors
Readout Name: polyreactivity (PSR sort gate)

1. QVQLVESGGGLVQAGGSLRLSCAASGRIFGVYAMGWYRQAPGKDREFVASITRGGGRTYYADSVKGRFTISRDNAKNTVYLQMNSLKPEDTAVYYCNAVVNSYPYYYWGQGTQVTVSS ... high polyreactivity
2. QVQLVESGGGLVQAGGSLRLSCAASGFTFNSYVMGWSRQAPGKERELVAAITRSGDRTYYADSVKGRFTISRDNAKNTVYLQMNSLKPEDTAVYYCAATWSKNYYGWYYYWGQGTQVTVSS ... high polyreactivity
3. QVQLVESGGGLVQAGGSLRLSCAASGRTFHQYAKGWYRQAPGKERELVAAISRSGGRTYYADSVKGRFTISRDNAKNTVYLQMNSLIPEDSAVYYCNRDIGGTSVLDDYWGQGTQVTVSS ... low polyreactivity
4. QVQLVESGGGLVQAGGSLRISCEAYGSIFGSYAMGWYRQEPGKERELVAGITYRGSSTYYADSVKGRYTISRDNAKNTVYLQMNSLKPEDTAVYYCAADPVFDEYDYWGQGTQVTVSW ... low polyreactivity
5. QDQLVESGGGLVQAGGSLRLSCAASGITFYRYAMGWYRQAPGKERDLVAAITTSDTSTYYADSVKGRFTISRDNAKNTVYLQMNSLKPEDTAVYYCATDVVNIAPAEYDYWGQGTQVTVSS ... low polyreactivity
6. QVQLVESGGGLVQAGGSLRLSCAASGLIFRYYAMGVYRQAPGHERELVAALTSTGRTYYADSVKGRFTISRDNAKNTVYVQMNSLKPEDTAVYYCNTDQFADYHTDFWSDYEYWGQGTQVTVSS ... low polyreactivity
7. QVQLVESGGGLVQAGGSLRLSCAASGNAMGWYRQAPGKERELVAAITRRGGSTYYADSVKGRFTISRDNAKNTVYLQMNSLKPEDTAVYYCAAENPSYNLCYGYWGQGTQVTVSS ... low polyreactivity
8. QVQLVESGGGLVQAGGSLRLSCAASGYTFYYNAMGWYRQATGKERELVAAISWSTSGTYYADSVKGRFTISRDNAKNTVYLQMYSLKPEYTAVYYCAAPSSGTITYDYWGQGTQVTVSS ... low polyreactivity
9. QVQLVESGGGLVQAGGSLRLSCAASGRILASYAMGWYRQAPGKERELVAAIRYRGSTSYADSVKGRFTISRDNANNTVYLQMNSLKPEDTAVYYCNAGLEYYYWGYTWEFDYWGQGTQVTVSS ... low polyreactivity
10. QVQLVESGGGLVQAGGSLRLSCAASGIIIGANAMGWYRQAPWKERELLAAITSGGSTYYADSVKGRFTISRDNAKNTVYLQMNSLKPEDTAVYYCAADVFWLYSFTIYDYWGQGTQVTVSS ... high polyreactivity
11. QVQLVESAGGLVQAGGSLRLSCAASGFIFVRNAMGWYRPAPGKVRELVAAISRSGGRTYNADSVKGRFTISRDNAKNTVYLQMNSLKPEDTAVYYCAARSGYFRSRFDYWGQGTQVTVSS ... high polyreactivity

* * *

Assay Explanation: yeast display, Sf9 membrane polyspecificity reagent, FACS + sequencing; frameworks hold sequencing errors
Readout Name: polyreactivity (PSR sort gate)

1. QVQLVESGGGLVQAGGSLRLSCAASGITFGAYAMGWYRQAPGKERELVAVITRGADTYYADSVKGRFTISRDNAKNTVYLQMNSLKPEDTAVYYCAAEIDLPYYYGSDDDDYWGQGTQVTVSS ... high polyreactivity
2. QVQLVESGGGLVQAGGSLRLSCAASGNIFGFNAMGWYRQAPGKERELVAAINSGGSTYYADSVKGRFTISRDNAKNTLYLQMNSLKPEDTAVYYCAAVRGKYRFGFWGQGTQVTVSS ... high polyreactivity
3. QVQLQESGGGLVQAGGSLRLSCAASGSIFHLHIMCWYRQAPGKESESVAAISYGTSTYYADSVKGRFTICRDNAKNTVYLQMNSPKPDDTAVYYCAALFLVSKHHHYWGEGTQVTVSS ... low polyreactivity
4. QVQLVESGGGLVQAGGSLRLSCAASGFTFKTNAMGWYRQAPGKERELVAAITSGGSTNYADSVKGRFTISRDNAKNTVYLQMNSLKPVDPAVYYCAADYGVWSEYAGWHAAFDYWGQGTQVTVSS ... low polyreactivity
5. QVQLVESGAGLVQAGGSLSLSCAASGRTIVTNAMGWYRQAPGKERELVAAINGRGDNTYYADSVKGRFTISRDNAKNTFYLQMNSLKPEDTAVYYCAVRRGYHSHTKYYYWGLGTQVTVSS ... high polyreactivity
6. QVQLVESGGGLVQAGGSLRLSCAASGRIFKYYSMGWYRQAPWKERELVAAITRGGSTNYADSVKGRFTISRDNEKNTVYLQMNSLKPEDTAVYYCAVDTVRNHRMDYWGQGTQVTVSS ... low polyreactivity
7. QVQLVESGGGLVQAGGSLRLSCAASGRTFQRYAMVWYRQAPGKERELVPAITSRGGSTYYSDSVKGRFTISRDNAKNTVYLQMNSLKPEDTAVYYCNARSRRTLSEPQSEMDYWGQGTQVTVSS ... high polyreactivity
8. QVQLVESGGGLVQAGGSLRLSCAASGRTFKLNAMGWYRQAPGKERELVAAISRNGGSTYYADSVKGRFTISRDNAKNTVYLQMTSLKPEDTAVYYCAAVRHGVSLAGYYWGQGTQVTVSS ... high polyreactivity
9. QVQLVQAGGGLVQAGGSLRLSSAPSGFTLYHYARGWYSQAPGKERQLVASITRSGASTYYPDSVKGRFTISRDNAKYTVYVQMNSLKPEDPAVYYCNKVRYTSSIWTYYDWGQGTQVTVSS ... high polyreactivity
10. QVQLVESGGGLVQAGGSLRLSCAASGFSFKRYAMGWYRQAPGKERELVADITRGGRTNYADSVKGRFTISRDNAKNTVYLQINSLKPEDTAVYYCNAVRQKYRFEYDYWGQGTQVTVSS ... high polyreactivity
11. QVQLVESGGGLVQAGGSLRLSCAASGRIFRSYAMGWYRQAPGKERELVAAISQRGGSTYYADSVKGRFTISRDNAKNTVYLQMNSLKPEDTAVYYCNKERRNSGKFDYWGQGTQVTVSS ... high polyreactivity
